- testedTarget: full-length B-Catenin (Uniprot ID P35222) (Homo sapiens, UniProt P35222)
- Construct: 65 nM full-length B-Catenin (Uniprot ID P35222)
- Sequence (P35222 whole entry): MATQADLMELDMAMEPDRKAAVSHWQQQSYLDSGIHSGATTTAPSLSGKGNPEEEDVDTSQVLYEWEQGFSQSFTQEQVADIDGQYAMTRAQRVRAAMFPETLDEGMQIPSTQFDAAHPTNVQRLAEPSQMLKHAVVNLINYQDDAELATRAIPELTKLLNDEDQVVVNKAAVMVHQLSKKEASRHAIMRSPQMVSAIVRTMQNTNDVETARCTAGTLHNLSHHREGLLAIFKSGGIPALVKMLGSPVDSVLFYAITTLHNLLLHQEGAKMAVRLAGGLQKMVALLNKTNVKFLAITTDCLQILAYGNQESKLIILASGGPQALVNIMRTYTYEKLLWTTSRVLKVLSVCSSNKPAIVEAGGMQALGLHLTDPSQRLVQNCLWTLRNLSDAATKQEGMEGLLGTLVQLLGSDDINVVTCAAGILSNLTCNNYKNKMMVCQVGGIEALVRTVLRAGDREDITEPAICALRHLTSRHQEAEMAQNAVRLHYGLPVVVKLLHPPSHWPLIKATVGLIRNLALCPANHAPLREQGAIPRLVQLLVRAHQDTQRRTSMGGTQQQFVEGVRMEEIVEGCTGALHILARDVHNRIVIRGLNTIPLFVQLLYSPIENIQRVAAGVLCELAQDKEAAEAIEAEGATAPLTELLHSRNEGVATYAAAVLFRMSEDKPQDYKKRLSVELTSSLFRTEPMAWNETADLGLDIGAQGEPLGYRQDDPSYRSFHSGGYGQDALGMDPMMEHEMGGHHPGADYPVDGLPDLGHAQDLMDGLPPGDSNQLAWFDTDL
- testSummary: Alphascreen binding assay (beta-catenin / biotin-TCF4 10-53)
readoutKind: EC50 (nM)
Give bare numbers, in nM.

In the examples that follow, each entry is paired with its recorded EC50.
{"compound": "CC(=O)N1CCC[C@]12CC=CCCCC1(CCCC=CCCCCCC[C@@](C)(C(=O)N[C@@H](Cc3ccccc3)C(=O)N[C@@H](Cc3c[nH]c4ccccc34)C(=O)N[C@@H](CCC(N)=O)C(N)=O)NC(=O)[C@H](C(C)C)NC(=O)[C@H](Cc3ccc(N)cc3)NC(=O)[C@H](C)NC(=O)[C@H](C)NC(=O)[C@H](CC(=O)O)NC(=O)[C@H](CC(=O)O)NC1=O)NC(=O)[C@H](C)NC(=O)[C@H](CC(=O)O)NC2=O (some centres unmarked) [I-322]", "uom": "nM", "EC50": 355}
{"compound": "CC[C@H](C)[C@@H]1NC(=O)[C@H](CC(=O)O)NC(=O)[C@]2(CC=CCCCC3(CCCC=CCCCCCC[C@@](C)(C(=O)N[C@@H](Cc4ccccc4)C(=O)N[C@@H](Cc4c[nH]c5ccccc45)C(=O)N[C@@H](C)C(N)=O)NC(=O)[C@H](CCC(N)=O)NC(=O)[C@H](Cc4ccccc4)NC(=O)[C@H](C)NC(=O)[C@H](C)NC(=O)[C@H](CCC(=O)O)NC(=O)[C@H](CC(=O)O)NC3=O)NC1=O)CCCN2C(C)=O (some centres unmarked)", "uom": "nM", "EC50": 105}
{"compound": "CC(=O)N[C@@H](Cc1ccccc1)C(=O)N[C@@H](CC(=O)O)C(=O)N[C@@H](C)C(=O)N[C@]1(C)CCCCCCC=CCOC(=O)N2CC[C@@](C(=O)N[C@@H](Cc3ccccc3)C(=O)N[C@@H](Cc3c[nH]c4ccccc34)C(=O)N[C@@H](CCC(N)=O)C(N)=O)(C2)NC(=O)[C@H](C(C)C)NC(=O)[C@H](Cc2cccc(C(N)=O)c2)NC(=O)[C@H](C)NC(=O)[C@H](C)NC(=O)[C@H](CC(=O)O)NC(=O)[C@H](CC(=O)O)NC1=O", "uom": "nM", "EC50": 8820}
{"compound": "CC(=O)N1CCC[C@]12CC=CCCCC1(CCCC=CCCCCCC[C@@](C)(C(=O)N[C@@H](Cc3ccccc3)C(=O)N[C@@H](Cc3c[nH]c4ccccc34)C(=O)N[C@@H](CCC(N)=O)C(N)=O)NC(=O)[C@H](C(C)C)NC(=O)[C@H](Cc3ccc(C(F)(F)F)cc3)NC(=O)[C@H](C)NC(=O)[C@H](C)NC(=O)[C@H](CC(=O)O)NC(=O)[C@H](CC(=O)O)NC1=O)NC(=O)[C@H](C)NC(=O)[C@H](CC(=O)O)NC2=O (some centres unmarked) [I-240]", "uom": "nM", "EC50": 3470}

Below: the item to evaluate.
# input Param item = CC(=O)N1CCC[C@]12CC=CCCCC1(CCCC=CCCCCCC[C@@](C)(C(=O)N[C@@H](Cc3ccccc3)C(=O)N[C@@H](Cc3c[nH]c4ccccc34)C(=O)N[C@@H](CCC(N)=O)C(N)=O)NC(=O)[C@H](C(C)C)NC(=O)[C@H](Cc3ccc(Cl)cc3)NC(=O)[C@H](C)NC(=O)[C@H](C)NC(=O)[C@H](CC(=O)O)NC(=O)[C@H](CC(=O)O)NC1=O)NC(=O)[C@H](C)NC(=O)[C@H](CC(=O)O)NC2=O (some centres unmarked) ; retrieve measured EC50.
# output 181
